Source listed as paper PMC8414988.

- protocol.text: Plasma pharmacokinetics, non-compartmental analysis
- Type: in vivo, human
- assay.context: human, plasma, po, 50 mg/m2, Half-life (median (range)), 50 mg/m^2 oral, Day 21 (repeated doses), N=6
property: half-life (h)
Write it as a number; the unit h goes unstated.

Returns the measured half-life for the input compound. Input: CC(=O)c1c(C)c2cnc(Nc3ccc(N4CCNCC4)cn3)nc2n(C2CCCC2)c1=O [palbociclib]
17.4

----------
- protocol.text: Plasma pharmacokinetics, non-compartmental analysis
- Format: in vivo, human
- assay.context: human, plasma, po, 75 mg/m2, Cmax (median (range)), 75 mg/m^2 oral, Day 1 (single dose), N=21
property: Cmax (ng/mL)
Write it as a number; the unit ng/mL goes unstated.

Returns the measured Cmax for the input molecule. Input: CC(=O)c1c(C)c2cnc(Nc3ccc(N4CCNCC4)cn3)nc2n(C2CCCC2)c1=O [palbociclib]
94

----------
- protocol.text: Plasma pharmacokinetics, non-compartmental analysis
- Format: in vivo, human
- assay.context: human, plasma, po, 95 mg/m2, AUC0-Tlast (median (range)), 95 mg/m^2 oral, Day 21 (repeated doses), N=2
property: AUC(0-t) (ng·h/mL)
Write it as a number; the unit ng·h/mL goes unstated.

Returns the measured AUC(0-t) for the input compound. Input: CC(=O)c1c(C)c2cnc(Nc3ccc(N4CCNCC4)cn3)nc2n(C2CCCC2)c1=O
2190

----------
- protocol.text: Plasma pharmacokinetics, non-compartmental analysis
- Type: in vivo, human
- assay.context: human, plasma, po, 50 mg/m2, AUC0-Tlast (median (range)), 50 mg/m^2 oral, Day 1 (single dose), N=7
property: AUC(0-t) (ng·h/mL)
Write it as a number; the unit ng·h/mL goes unstated.

Returns the measured AUC(0-t) for the input compound. Input: CC(=O)c1c(C)c2cnc(Nc3ccc(N4CCNCC4)cn3)nc2n(C2CCCC2)c1=O
1160
